The measured values listed here are drawn from PubChem BioAssay (EPA / NIEHS).

# assayProcedure: BSK_4H_SRB: Viability Assessment in the BioMAP Diversity Plus: 4H Assay (AID 2283027);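 note: cells exposed to compound for 24 h before staining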
# runParameters: primary human endothelial cells (HUVEC)
Activity calls are given as the source filed them. Rule for the calls: active = hit-call score of the fitted dose curve at least 0.9, where 1 is the maximum; inactive = score below 0.9.
Outcome codes: active, inactive

In [3]: df
Out[3]:
                                    compound  classassignment
 0              COc1nn(CSP(=S)(OC)OC)c(=O)s1         inactive
 1           O=C1c2ccccc2C(=O)N1SC(Cl)(Cl)Cl         inactive
 2                    CNC(=O)Oc1ccccc1OC(C)C         inactive
 3  [2H]C1([2H])[n+]2ccccc2-c2cccc[n+]2C1([2H])[2H]         inactive
 4               COP(=S)(OC)Oc1ccc(SC)c(C)c1           active
 5  Cc1cc(C)nc(NC(=O)NS(=O)(=O)c2ccccc2C(=O)OC2COC2)n1         inactive
 6                  O=C(O)CCCOc1ccc(Cl)cc1Cl         inactive
 7               CNC(=O)/C=C(\C)OP(=O)(OC)OC         inactive
 8  COc1cc(OC)nc(NC(=O)NS(=O)(=O)c2cc(NC=O)ccc2C(=O)N(C)C)n1         inactive
 9    O=[N+]([O-])c1c(Cl)c(Cl)c(Cl)c(Cl)c1Cl         inactive
10  COC(=O)c1ccccc1S(=O)(=O)NC(=O)N(C)c1nc(C)nc(OC)n1         inactive
11  CCC(C)(NC(=O)c1cc(Cl)c(C)c(Cl)c1)C(=O)CCl (stereo not given)           active
12                                      N#CN         inactive
13  CC1(c2ccc(Oc3ccccc3)cc2)OC(=O)N(Nc2ccccc2)C1=O (stereo not given)           active
14                    Oc1ccc(Cl)cc1Cc1ccccc1           active

* * *

# assayProcedure: Tanguay_ZF_120hpf_EYE_legacy: (Legacy) Oregon State University Tanguay Lab 120 Hour Post-fertilization zebrafish Assay for Eye Malformation (AID 2283636);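 note: binary presence or absence of eye malformation scored by brightfield in 120 hpf larvae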
Results filed as inconclusive are left out. Calls of active or inactive are those of the source. Rule for the calls: active = hit-call score of the fitted dose curve at least 0.9, where 1 is the maximum; inconclusive = response in the unintended direction; inactive = score below 0.9.
endpointLabel: AC50

>>> print(df.to_string())
                                   molecule            result
0          Cc1[nH]c(=O)n(C(C)(C)C)c(=O)c1Cl          inactive
1          Clc1ccccc1-c1nnc(-c2ccccc2Cl)nn1          inactive
2  O=C(O)C(F)(F)C(F)(F)C(F)(F)C(F)(F)C(F)(F)C(F)(F)C(F)(F)F          inactive
3              Oc1cc(Cl)ccc1Oc1ccc(Cl)cc1Cl          inactive
4  CCC(C)(NC(=O)c1cc(Cl)c(C)c(Cl)c1)C(=O)CCl (stereo not given)  28.2 µM (active)

* * *

# assayProcedure: APR_HepG2_MicrotubuleCSK_1hr: Apredica 1-hour HepG2 Assay for Microtubule CSK Stabilty (AID 2282669)
# runParameters: HepG2 microtubule cytoskeleton imaging, actives raise or lower the signal
The source made the active and inactive calls. The calls were made as follows: active = hit-call score of the fitted dose curve at least 0.9, where 1 is the maximum; inactive = score below 0.9.
endpointLabel: outcome

                                    compound    result
 0  CC(C)(C)C(O)/C(=C\c1ccc(Cl)cc1Cl)n1cncn1 (stereo unspecified)  inactive
 1                    Oc1ccc(Cl)cc1Cc1ccccc1  inactive
 2           O=C1c2ccccc2C(=O)N1SC(Cl)(Cl)Cl  inactive
 3  O=C(O)C(F)(F)C(F)(F)C(F)(F)C(F)(F)C(F)(F)C(F)(F)C(F)(F)F  inactive
 4  C#CCN1C(=O)COc2cc(F)c(N3C(=O)C4=C(CCCC4)C3=O)cc21  inactive
 5  CCC(C)(NC(=O)c1cc(Cl)c(C)c(Cl)c1)C(=O)CCl (stereo unspecified)  inactive
 6  O=C(NC(=O)c1c(F)cccc1F)Nc1ccc(OC(F)(F)C(F)OC(F)(F)F)c(Cl)c1 (stereo unspecified)  inactive
 7          Cc1[nH]c(=O)n(C(C)(C)C)c(=O)c1Cl  inactive
 8  CCCN(CCC)c1c([N+](=O)[O-])cc(C(F)(F)F)cc1[N+](=O)[O-]  inactive
 9              CCOCN(C(=O)CCl)c1c(C)cccc1CC  inactive
10        COP(=S)(OC)Oc1ccc([N+](=O)[O-])cc1  inactive
11                  CC(C)OC(=O)Nc1cccc(Cl)c1  inactive
12          Clc1ccccc1-c1nnc(-c2ccccc2Cl)nn1  inactive
13               CNC(=O)/C=C(\C)OP(=O)(OC)OC  inactive
14  CCOC1Oc2ccc(OS(C)(=O)=O)cc2C1(C)C (stereo unspecified)  inactive
15              COc1nn(CSP(=S)(OC)OC)c(=O)s1  inactive
